System: OVCAR-3 ovarian
TEST_SUMMARY: NCI tumour cell line growth inhibition, 48 h
Where a SMILES comes first, the peptide text is derived from it. The star is where a group is joined. Cbz = O=C(OCc1ccccc1)*
REPORTED_PROPERTY: TGI

### Prompt Let me know recorded TGI for NCCCOc1cc(Cl)ccc1NC(=O)c1cc2ccccc2cc1OCCCN , thanks.
### Response 2.65 µM

### Prompt Let me know recorded TGI for CCOC(=O)CCC(NC(=O)OCc1ccccc1)C(=O)NC(CCC(=O)OCC)C(=O)OCC (configuration not stated) (Cbz-Glu(OEt)-Glu(OEt)-OEt; configuration not given here) , thanks.
### Response > 100 µM

### Prompt Let me know recorded TGI for C=C(C)[C@@H]1CC[C@]2(C)[C@H](CC[C@@H]3[C@@H]([C@@](C)(O)CCC=C(C)C)CC[C@]32C)[C@@]1(C)CCC(=O)O , thanks.
### Response 29.8 µM

### Prompt Let me know recorded TGI for COc1cc(/C=C/C(=O)C(C(=O)/C=C/c2ccc(OC(=O)CCNC34CC5CC(CC(C5)C3)C4)c(OC)c2)C(=O)CCNC23CC4CC(CC(C4)C2)C3)ccc1OC(=O)CCNC12CC3CC(CC(C3)C1)C2 (configuration not stated) , thanks.
### Response > 100 µM

### Prompt Let me know recorded TGI for c1ccc2c(c1)OCCOCCOc1ccccc1OCCO2 , thanks.
### Response 70 µM

### Prompt Let me know recorded TGI for c1ccc(NCCSc2nc3ccccc3s2)cc1 , thanks.
### Response > 100 µM

### Prompt Let me know recorded TGI for Cc1ccc(NC(=O)C(=O)C2C(=O)NC(=O)NC2=O)cc1C , thanks.
### Response > 100 µM

### Prompt Let me know recorded TGI for COC(=O)c1c[nH]cc1CCCCc1c[nH]cc1C(=O)OC , thanks.
### Response > 100 µM

### Prompt Let me know recorded TGI for CCCC(=O)[O-].CCCC(=O)[O-].NCCN.NCCN.[Co+3].[O-][Cl+3]([O-])([O-])[O-] , thanks.
### Response > 100 µM

### Prompt Let me know recorded TGI for O=C(NCCN1CCOCC1)c1ccc(I)cc1 , thanks.
### Response > 100 µM

### Prompt Let me know recorded TGI for CC(=O)OCCOCNC(=S)N/N=C/c1ccc([N+](=O)[O-])s1 , thanks.
### Response > 100 µM

### Prompt Let me know recorded TGI for O=C(NC1CCCCC1)c1ccc(Nc2ncnc3c2cnn3-c2ccccc2)cc1 , thanks.
### Response > 100 µM

* * *

Tested on: MDA-MB-435
TEST_SUMMARY: NCI tumour cell line growth inhibition, 48 h
REPORTED_PROPERTY: TGI

### Prompt Please report the measured TGI for CC(NC(=O)c1c(O)[nH]c(=S)[nH]c1=O)c1ccc([N+](=O)[O-])cc1 (stereo not drawn) tested on MDA-MB-435.
### Response > 100 µM

### Prompt Please report the measured TGI for C=C1C(=O)OC2C1CC(OC(C)=O)/C(C)=C/CCC1(C)OC21 (stereo not drawn) tested on MDA-MB-435.
### Response > 100 µM

### Prompt Please report the measured TGI for COc1cc2nc(-c3cccs3)nc(Cl)c2cc1OC tested on MDA-MB-435.
### Response > 100 µM
